experiment: Inhibition of recombinant rat/human ADAMTS12 hybrid using HiLyteFluor-488 DELSSMVLELRGLRT-K(QXL520)-E-NH2 as substrate incubated for 120 mins and measured by FRET assay
I'd be grateful if you could share measured IC50 for these entries.
Your answer should be a plain number; it is taken to be in µM.

Q: # input molecule: CC(C)(C)C1(CNC(=O)c2cnn(-c3ccc(F)cc3)n2)NC(=O)NC1=O (racemic) ; wanted: its IC50
Result: 6

Q: Another molecule to check: CC(C)C1(CNC(=O)c2cnn(-c3ccccc3)n2)NC(=O)NC1=O (stereo in doubt)
Result: 10

Q: # repeat for CC(C)C1(CNC(=O)c2cnn(-c3ccc(Cl)c(F)c3)n2)NC(=O)NC1=O (racemic)
Result: 2.8
